System: PC-3 prostate
Method: NCI tumour cell line growth inhibition, 48 h; in the data active means GI50 below about 0.43 µM; inactive means the rest
Outcomes: 1 = active, -1 = inactive

>>> label("O=C(COc1ccc(/C=C2\\COc3ccccc3C2=O)cc1)Nc1nccs1")
-1
>>> label("CN1CCC(COc2cnc(-c3cccc(Cn4nc(-c5cccc(C#N)c5)ccc4=O)c3)nc2)CC1")
-1
>>> label("CC[C@H](NC(=O)[C@H]1CCCCN1C)C(=O)N(C)[C@H](C[C@@H](OC(C)=O)c1nc(C(=O)N[C@@H](Cc2ccccc2)C[C@H](C)C(=O)O)cs1)C(C)C")
1
>>> label("O=C1c2[nH]cc(CNC3CN4CCC3CC4)c2C(=O)c2c1c(O)c1ccccc1c2O (centres undefined)")
-1
>>> label("Cc1ccc(NC(=O)c2ccc(CN3CCN(C)CC3)cc2)cc1Nc1nccc(-c2cccnc2)n1")
-1
>>> label("O=C1CC[C@H](N2C(=O)c3cccc4c(Cc5ccc(CN6CCOCC6)cc5)ccc2c34)C(=O)N1")
-1
>>> label("COC1C(CO)OC(n2c3ccccc3c3c4c(c5c6ccccc6[nH]c5c32)C(=O)NC4=O)C(O)C1O (centres undefined)")
1
>>> label("COC1=CC(c2ccc[nH]2)=N/C1=C\\c1[nH]c(C)c(CC(=O)OCc2ccccc2)c1CCC(=O)OCc1ccccc1")
1
>>> label("CO/C=C/C(=O)c1cc2cnc3c(=N)cc(NC(=O)C(C)C)c([nH]1)c23")
1

---

Tested on: OVCAR-5 ovarian
Method: NCI tumour cell line growth inhibition, 48 h
Parameter measured: TGI

>>> observed("COc1c(O)c(OC)c2oc(-c3ccc(O)c(O)c3)c(OC)c(=O)c2c1O")
"> 100 µM"
>>> observed("CCC(CC)c1nc(Nc2ccc(C(=O)OC)cc2)c2ccccc2n1")
"> 50 µM"
>>> observed("S=C(NNC1=NCCCCN1)Nc1ccc(Cl)cc1")
"> 100 µM"
>>> observed("Oc1ccc2c(c1)CCc1c-2n(CCN2CCOCC2)c2ccc(O)cc12")
"> 100 µM"
>>> observed("COc1cccc(CCC2CCCN(c3cc(C)nc(N)n3)C2)c1 (centres undefined)")
"17.7 µM"
>>> observed("CCCCNc1nc2ccccc2c2c1ncn2CC(C)C")
"> 100 µM"
>>> observed("C=C(C)[C@@H]1CC[C@]2(COCCC#N)CC[C@]3(C)[C@H](CC[C@@H]4[C@@](C)(CCCNCCC#N)[C@H](C(=C)C)CC[C@]43C)[C@@H]12")
"44.1 µM"
>>> observed("C[C@]12CC[C@@H]3c4cc(OC(F)F)c(O)cc4CC[C@H]3[C@@H]1CC[C@@H]2OS(N)(=O)=O")
"> 100 µM"
>>> observed("CC(C)(C)N1CCC1CN (centres undefined)")
"> 100 µM"
>>> observed("CCCCCCCCCCCCCCCCCCNc1ccn(C2OC(COP(=O)(O)OCC3OC(n4cc(C)c(=O)[nH]c4=O)CC3F)C(O)C2O)c(=O)n1 (centres undefined)")
"6.48 µM"
>>> observed("O=Cc1c2n(c3ccccc13)N[C@@](Cc1ccc(O)cc1)(C(=O)O)C2")
"> 100 µM"
>>> observed("N#Cc1c(NC(=O)NCc2ccccc2)sc2c1CCCC2")
"> 100 µM"
>>> observed("CC(=O)OC(CN1CCN(c2ccccn2)CC1)Cn1sc2nc(C)cc(C)c2c1=O (centres undefined)")
"31.5 µM"
>>> observed("CCOc1ccc(N/C(=C(/C(Cl)=C(/Cl)Nc2ccccc2)[N+](=O)[O-])n2nnc3ccccc32)cc1")
"> 100 µM"
>>> observed("COC1OC(CO)C(O)C(OC(C)=O)C1NC(=O)N(CCCl)N=O (centres undefined)")
"> 100 µM"
>>> observed("CN(C)c1ccc(/C=C/C(=O)[O-])cc1.CN(C)c1ccc(/C=C/C(=O)[O-])cc1.[Cu+2]")
"60.3 µM"
>>> observed("Clc1ccc(Nc2nnc(CCCCCCCCc3nnc(Nc4ccc(Cl)cc4)o3)o2)cc1")
"> 100 µM"
>>> observed("CCOc1ccc2nc3nc(=O)[nH]c(C)c3c(NCCCN(CC)CC)c2c1")
"> 100 µM"
>>> observed("Nc1c(C(=O)c2ccc(-c3cccnc3)cc2)cnn1-c1ccc(F)cc1")
"> 25 µM"
>>> observed("CC(C)C1OC(N)=C(C#N)C1(C#N)C#N (centres undefined)")
"> 100 µM"
>>> observed("Cn1c2ccccc2n2c3ncccc3c(=NCCCC(=O)O)c(C#N)c12")
"> 100 µM"
>>> observed("CC(=O)Nc1ccc(/C=c2\\sc3nnc(CCC(=O)Nc4ccccc4Cl)n3c2=O)cc1")
"> 100 µM"
>>> observed("CSc1ccc(-c2ccccc(=O)c2O)cc1")
"> 100 µM"
>>> observed("COC1C(CO)OC(n2c3ccccc3c3c4c(c5c6ccccc6[nH]c5c32)C(=O)NC4=O)C(O)C1O (centres undefined)")
"2.24 µM"
>>> observed("COc1ccc(/C=C(/C(=O)N2CCN(c3ccccc3)CC2)c2cc(OC)c(OC)c(OC)c2)cc1N")
"> 100 µM"
>>> observed("CC1=C(O)c2cn(C)cc2C(=O)C1=O")
"> 100 µM"
>>> observed("CCCCCCCCOCC(O)COC(C)C (centres undefined)")
"> 100 µM"
>>> observed("Cc1cc(Cl)cc2c(N=Nc3ccc(S(N)(=O)=O)cc3)c(O)[nH]c12")
"> 25 µM"
>>> observed("Cc1ccc(NC(=O)c2ccc(CN3CCN(C)CC3)cc2)cc1Nc1nccc(-c2cccnc2)n1")
"39.5 µM"
>>> observed("COC(=O)[C@@H](C)C[C@H](Cc1cn(C)c2ccccc12)NC(=O)c1csc([C@@H](C[C@H](C(C)C)N(C)C(=O)[C@@H](NC(=O)[C@H]2CCCCN2C)C(C)C)OC(C)=O)n1")
"> 16.7 µM"
>>> observed("O=C(O)/C=C/C(=O)N1Cc2cc3ccccc3nc2C1")
"> 100 µM"
>>> observed("C[n+]1c(/C=C/c2c[nH]c3ccccc23)ccc2ccccc21")
"59.1 µM"
>>> observed("NC1=CC(=O)c2cccnc2C1=O")
"4.72 µM"
>>> observed("O=C(O)CSC(CC1(c2ccc(Cl)cc2)NC(=O)CS1)c1ccc(Cl)cc1 (centres undefined)")
"> 100 µM"
